Provide the recorded growth inhibition for the entries that follow.
assay: NCI Yeast Anticancer Drug Screen. Data for the cln2 rad14 strain (AID 165);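 note: 0% = growth equal to vehicle treated cultures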; conditions: S. cerevisiae cln2 rad14 strain, at 50.0 µM, active compounds read high
Compounds without any hit were thinned out: in the full panel of roughly 79,000, 15% have a hit.
Give bare numbers, in %.

compound: CC(=O)C/C(C)=N\NC(=O)c1ccc([N+](=O)[O-])cc1
growth inhibition, %: 7.35

Record growth inhibition for all entries; do not skip any.
1. CCCCCCCCCCCCCCCCCC(=O)OCC(CO)OC(=O)CCCCCCCCCCCCCCCCC (configuration not stated)
2. COc1ccc(C(C)(C)c2ccccc2)cc1

[6.95, -19.9]

Report growth inhibition for every entry below.
1. CCCCCCCOC(=O)c1ccccc1Cl
2. CN(C)c1ccc(C(=O)C2N=NCC2c2ccccc2)cc1 (configuration not stated)
3. COC(=O)c1nc(SC)[nH]c1CC(N)=O

1: -6.7; 2: 7.3; 3: -22.8

For each listed entry, give its growth inhibition.
1. COc1c(C)c(OCC=C(C)C)cc(CO)c1CO
2. c1cc[n+](-c2nc3ccccc3[n-]2)cc1
3. Cc1ccccc1-n1c(=O)sc2c(=O)n(-c3ccccc3)c(=S)[nH]c21
4. O=c1c2cc(Cl)ccc2on1CN1CCOCC1
5. NC(Cc1cccs1)C(=O)O (configuration not stated)
6. CC1=C(c2ccccc2)C(c2ccccc2)c2ccccc21 (configuration not stated)

1: -8.15; 2: -18.5; 3: 6.2; 4: -3.9; 5: -43; 6: 51.4

* * *

test: NCI Yeast Anticancer Drug Screen. Data for the bub3 strain (AID 167); settings: S. cerevisiae bub3 mutant strain, at 50.0 µM, active compounds read high
This is part of a sample that, as a whole, favours compounds with a hit. Of some 79,000 tested, about 15% had one in any assay.
property-measured: growth inhibition (%)
Numbers only, in %.

Sample answers from the record:
compound: CCOC(=O)c1ccc(N(N=O)C(C)C)cc1
result: 1.25
//
compound: CSc1cc2c(cc1N)C(=O)c1ccccc1-2
result: -13.1
//
compound: CSc1nc(N)n2nc(C)cc2n1
result: 33.3
//
compound: Nc1ccccc1NC(=O)c1nc2ccccc2[nH]1
result: 7.8
//
compound: CC(=O)Nc1cc2cc(NC(=O)C(Cl)(Cl)Cl)ccc2oc1=O
result: -11.7

Respectfully, I request growth inhibition for each entry included below.
1. O=C1CCCC1CC(CN1CCOCC1)Sc1nnnn1-c1ccccc1 (stereo not given)
2. COc1ccc(C2(C)OC(=O)c3ccccc32)c2ccccc12 (stereo not given)
3. O=c1[nH]c(NCc2ccc(Cl)cc2)nc2nc[nH]c12
4. CN(C)S(=O)(=O)Cc1ccccc1
5. S=C(Cc1cccnc1)N1CCOCC1

25.2
73.2
-8.55
6.75
5.15

* * *

test: NCI Yeast Anticancer Drug Screen. Data for the mlh1 rad18 strain (AID 175); conditions: S. cerevisiae mlh1 rad18 strain growth inhibition; at 50.0 µM; active compounds read high
This is part of a sample that, as a whole, favours compounds with a hit. Of some 79,000 tested, about 15% had one in any assay.
Would you please tag the item t when its growth inhibition is 10% or above, and f when it is below?

molecule: O=c1oc2ccccc2c(O)c1C(c1cccc(C(c2c(O)c3ccccc3oc2=O)c2c(O)c3ccccc3oc2=O)c1)c1c(O)c2ccccc2oc1=O
class-name: t
--
molecule: Cc1ccc(S(=O)(=O)Nc2ccc(C(=O)NC(CCC(=O)O)C(=O)O)cc2)cc1 (stereo not given)
class-name: t
--
molecule: O=C(Nc1c[nH]c(=O)[nH]c1=O)Oc1ccccc1
class-name: f

Threshold query (growth inhibition >= 10%) on `CC(C)(C)NNC(=O)/C(=C/c1ccc(Oc2ccc(Cl)c(Cl)c2)cc1)NC(=O)c1ccccc1` t

Tell me whether growth inhibition is at least 10% here: `Cc1ccc(-n2cc(/C(N)=N/O)c3ccccc3c2=O)cc1` f
